assay: Single dose PK, phase 1, healthy European men; type: in vivo, human; details: male, human, plasma, sc, 0.1 mg, single SC 0.1 mg, read-out: T½ (median) (converted)
Where a SMILES comes first, the peptide text is derived from it. [ ]: non-standard residue; d: D form. Arg(Me) = CNC(=N)NCCC[C@H](N)C(=O)O; Hyp = O=C(O)[C@@H]1C[C@@H](O)CN1; azaGly = NNC(=O)O
endpoint.label: half-life (h)
Kindly answer with a numeric value in h, unit omitted.

Write down half-life measured for item CC(=O)O.CNC(=N)NCCC[C@H](NC(=O)[C@H](CC(C)C)NC(=O)NNC(=O)[C@H](Cc1ccccc1)NC(=O)[C@@H](NC(=O)[C@H](CC(N)=O)NC(=O)[C@@H]1C[C@@H](O)CN1C(=O)[C@@H](Cc1ccc(O)cc1)NC(C)=O)[C@@H](C)O)C(=O)N[C@@H](Cc1c[nH]c2ccccc12)C(N)=O [API-MA] (Ac-[dY][Hyp]NTF[azaGly]L[Arg(Me)]W-NH2)
3.08
